# subject-of-test: human β3 adrenergic receptor (Homo sapiens)
# Construct: Full length β3 AR clones (402 amino acids) containing the last 6 amino acids of hβ3-AR are prepared; expressed in transfected cells; host or cells: CHO (Chinese hamster ovary) cells
# procedure-text: cAMP (SPA) response in CHO cells transfected with human β3 adrenergic receptor
# Assay type: cell-based
# Design: key: fraction of maximal isoproterenol (10^-5 M) response
# stated-conditions: maximal response relative to maximal response of isoproterenol at 10^-5 M
property-label: IA(β3)
Lab note: jot down the number only; don't add units.

molecule=O=c1[nH]c2cccc(OC[C@@H](O)CNC3CCN(c4ccc(NS(=O)(=O)c5ccc(-c6ccccn6)s5)cc4)CC3)c2[nH]1 property_label=IA(β3) reported=1.04

# IA(β3) of COc1ccc(S(=O)(=O)Nc2ccc(N3CCC(NCC(O)c4cccc(O)c4)CC3)cc2)cc1 (stereo not shown) = 0.85

# IA(β3) of `CS(=O)(=O)Nc1cc([C@@H](O)CNC2CCN(c3ccc(C(=O)NCCC(=O)O)cc3)CC2)ccc1O` = 0.98

# IA(β3) of `CS(=O)(=O)Nc1cc([C@@H](O)CNC2CCN(c3ccc(NS(=O)(=O)CC(=O)OCc4ccccc4)cc3)CC2)ccc1O` = 0.89

# IA(β3) of `CS(=O)(=O)Nc1cc([C@@H](O)CNC2CCN(c3ccc(C(=O)N[C@@H](CCC(=O)O)C(=O)O)cc3)CC2)ccc1O` = 0.88

# IA(β3) of `CS(=O)(=O)Nc1cc([C@@H](O)CNC2CCN(c3ccc(NC(=O)NCC(=O)O)cc3)CC2)ccc1O` = 0.94

# IA(β3) of `CCCCCCCCS(=O)(=O)Nc1ccc(N2CCC(NC[C@H](O)COc3ccc(O)cc3)CC2)cc1` = 0.35

###

# subject-of-test: human β3 adrenergic receptor (Homo sapiens)
# Construct: Full length β3 AR clones (402 amino acids) containing the last 6 amino acids of hβ3-AR are prepared; expressed in transfected cells; host or cells: CHO (Chinese hamster ovary) cells
# procedure-text: cAMP (SPA) response in CHO cells transfected with human β3 adrenergic receptor
# Type: cell-based
# Parameters: key: fraction of maximal isoproterenol (10^-5 M) response
# stated-conditions: maximal response relative to maximal response of isoproterenol at 10^-5 M
// IA(β3) lookup, one value per entry

Would you please look over these solved cases?
molecule=O=C(CCl)Nc1ccc(N2CCC(NC[C@H](O)COc3cccc4[nH]c(=O)[nH]c34)CC2)cc1 reported=0.64
molecule=O=C1NC(=O)C(=Cc2ccc(N3CCC(NC[C@H](O)COc4ccccc4)CC3)cc2)S1 reported=0.68
molecule="O=C1NC(=O)C(Cc2ccc(N3CCC(NC[C@H](O)c4cccnc4)CC3)cc2)S1 (stereo partly shown)" reported=0.9

Kindly consider the entry below.
# IA(β3) of `O=S(=O)(Nc1ccc(N2CCC(NC[C@H](O)COc3ccc(O)cc3)CC2)cc1)c1ccc(-c2ccccn2)s1` = 0.94

###

# subject-of-test: human β3 adrenergic receptor (Homo sapiens, UniProt P13945)
# Construct: Full length β3 AR clones (402 amino acids) containing the last 6 amino acids of hβ3-AR are prepared; expressed in transfected cells; host or cells: CHO (Chinese hamster ovary) cells
# Sequence (P13945 whole entry): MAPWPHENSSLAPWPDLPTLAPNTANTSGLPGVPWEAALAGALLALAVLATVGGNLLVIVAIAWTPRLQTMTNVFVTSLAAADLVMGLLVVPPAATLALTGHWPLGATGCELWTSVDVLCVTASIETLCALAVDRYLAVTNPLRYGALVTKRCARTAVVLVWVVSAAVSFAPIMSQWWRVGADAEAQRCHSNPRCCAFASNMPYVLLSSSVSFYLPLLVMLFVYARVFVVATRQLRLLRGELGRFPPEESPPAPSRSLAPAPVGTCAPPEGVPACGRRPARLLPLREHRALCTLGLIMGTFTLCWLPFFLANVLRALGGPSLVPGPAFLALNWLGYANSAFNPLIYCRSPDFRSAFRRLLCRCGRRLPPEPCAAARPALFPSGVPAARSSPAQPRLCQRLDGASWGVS
# procedure-text: cAMP (SPA) response in CHO cells transfected with human β3 adrenergic receptor
# Assay type: cell-based
# Design: key: fraction of maximal isoproterenol (10^-5 M) response
# stated-conditions: maximal response relative to maximal response of isoproterenol at 10^-5 M
We label by threshold. Values of IA(β3) strictly beneath 1 are condition met. Values of 1 and up are condition not met.

Example cases with answers are listed next.
compound=CCCCCCNC(=O)Nc1ccc(S(=O)(=O)Nc2ccc(N3CCC(NC[C@H](O)COc4cccc5[nH]c(=O)[nH]c45)CC3)cc2)cc1 subject_of_test="human β3 adrenergic receptor (Homo sapiens, UniProt P13945)" discrete_label="condition met"
compound="CS(=O)(=O)Nc1cc(C(O)CNC2CCN(c3ccc(NS(=O)(=O)c4ccc(-n5nnn(CCCC6CCCC6)c5=O)cc4)cc3)CC2)ccc1O (centres unmarked)" subject_of_test="human β3 adrenergic receptor (Homo sapiens, UniProt P13945)" discrete_label="condition not met"
compound=CC(C)[C@H](NC(=O)c1ccc(N2CCC(NC[C@H](O)c3ccc(O)c(NS(C)(=O)=O)c3)CC2)cc1)C(=O)O subject_of_test="human β3 adrenergic receptor (Homo sapiens, UniProt P13945)" discrete_label="condition not met"
compound=CCOC(=O)CCc1ccc(N2CCC(NC[C@H](O)c3ccc(O)c(NS(C)(=O)=O)c3)CC2)cc1 subject_of_test="human β3 adrenergic receptor (Homo sapiens, UniProt P13945)" discrete_label="condition not met"
compound=CCCCOc1ccc(S(=O)(=O)Nc2ccc(N3CC(NC[C@H](O)COc4ccc(O)cc4)C3)cc2)cc1 subject_of_test="human β3 adrenergic receptor (Homo sapiens, UniProt P13945)" discrete_label="condition met"
compound=COC(=O)COc1ccc(S(=O)(=O)Nc2ccc(N3CCC(NC[C@H](O)c4ccc(Cl)c(NS(C)(=O)=O)c4)CC3)cc2)cc1 subject_of_test="human β3 adrenergic receptor (Homo sapiens, UniProt P13945)" discrete_label="condition met"

Check if IA(β3) falls below 1 for O=C1NC(=O)C(Cc2ccc(N3CCC(NC[C@H](O)COc4cccc5[nH]c(=O)[nH]c45)CC3)cc2)S1 (some centres unmarked) . condition not met

Check if IA(β3) falls below 1 for `O=c1[nH]c2cccc(OC[C@@H](O)CNC3CCN(c4ccc(NS(=O)(=O)c5ccc(OC(F)(F)F)cc5)cc4)CC3)c2[nH]1` . condition met

Check if IA(β3) falls below 1 for `COc1ccc(S(=O)(=O)Nc2ccc(N3CCC(NC[C@H](O)COc4ccc(O)cc4)CC3)cc2)cc1OC` . condition met

###

Where a name gives a salt, the structure may show the parent alone.
property-label: melting point

Would you please look over these solved cases?
molecule="CS(=O)(=O)Nc1cc([C@@H](O)CNC2CCN(c3ccc(NC(=O)CCC4CCCC4)cc3)CC2)ccc1O [Example 393]" reported="82 to 90 °C"
molecule="CCOC(=O)CCNC(=O)c1ccc(N2CCC(NC[C@H](O)c3ccc(O)c(NS(C)(=O)=O)c3)CC2)cc1 [Example 193]" reported="> 95 °C (dec.)"
molecule="CCCC(=O)Nc1ccc(N2CCC(NC[C@H](O)COc3cccc4[nH]c5ccccc5c34)CC2)cc1 [Example 387]" reported="194 to 199 °C"
molecule="Cl.Nc1ccc([C@H](O)CNC2CCN(c3ccc(CC4SC(=O)NC4=O)cc3)CC2)cn1 (stereo partly shown)" reported="182 °C (dec.)"
molecule="CS(=O)(=O)Nc1cc([C@@H](O)CNC2CCN(c3ccc(NC(=O)c4ccc5c(c4)OCO5)cc3)CC2)ccc1O [Example 394]" reported="104 to 113 °C"

# melting point of N=C1NC(=O)C(Cc2ccc(N3CCC(NC[C@H](O)COc4cccc5[nH]c(=O)[nH]c45)CC3)cc2)S1 (stereo partly shown) [Example 89] = > 155 °C (dec.)

# melting point of CC(C)C[C@H](NC(=O)c1ccc(N2CCC(NC[C@H](O)c3ccc(O)c(NS(C)(=O)=O)c3)CC2)cc1)C(=O)O (as salt: sodium) [Example 199] = > 177 °C (dec.)

###

// IA(β3) lookup, one value per entry
# subject-of-test: human β3 adrenergic receptor (Homo sapiens)
# Construct: Full length β3 AR clones (402 amino acids) containing the last 6 amino acids of hβ3-AR are prepared; expressed in transfected cells; host or cells: CHO (Chinese hamster ovary) cells
# procedure-text: cAMP (SPA) response in CHO cells transfected with human β3 adrenergic receptor
# Format: cell-based
# Design: key: fraction of maximal isoproterenol (10^-5 M) response
# stated-conditions: maximal response relative to maximal response of isoproterenol at 10^-5 M
Lab note: jot down the number only; don't add units.

Would you please look over these solved cases?
compound="CCCCCCNC(=O)Nc1ccc(S(=O)(=O)Nc2ccc(N3CCC(NC[C@H](O)c4cccc(Cl)c4)CC3)cc2)cc1 [Example 311]" subject_of_test="human β3 adrenergic receptor (Homo sapiens)" property_label=IA(β3) reported=0.82
compound="CS(=O)(=O)Nc1cc([C@@H](O)CNC2CCN(c3ccc(CC(=O)O)cc3)CC2)ccc1O [Example 182]" subject_of_test="human β3 adrenergic receptor (Homo sapiens)" property_label=IA(β3) reported=0.86
compound="CCOC(=O)[C@H](CC(C)C)NC(=O)c1ccc(N2CCC(NC[C@H](O)c3ccc(O)c(NS(C)(=O)=O)c3)CC2)cc1 [Example 198]" subject_of_test="human β3 adrenergic receptor (Homo sapiens)" property_label=IA(β3) reported=0.97

Kindly consider the entry below.
# IA(β3) of CCCCS(=O)(=O)N(CC(=O)OCC)c1ccc(N2CCC(NC[C@H](O)c3ccc(O)c(NS(C)(=O)=O)c3)CC2)cc1 [Example 345] = 1
